Recorded IC50 values (Yersinia PTPase (Yersinia enterocolitica, UniProt P15273)) are given below.

compound	measurement unit	IC50
O=C(O)C(=O)c1c[nH]c2ccccc12 [Compound 8]	µM	390
COc1ccc(C(=O)C(=O)O)cc1 [Compound 10]	µM	150
O=C(O)C(=O)c1ccccc1 [Compound 1]	µM	2700
O=C(O)C(=O)c1ccc(O)cc1 [Compound 27]	µM	200
